MEASUREMENT PROTOCOL: protein stability index of a GFP-peptide fusion (yeast GPS) (PSI 1-4); higher = more stable; sorted into four equal gates, so the index is relative within each strain
EXPERIMENTAL CONTEXT: pdr5∆
protein stability index listing for selected sequences.

Known results for sequences:
[[record]]
record_sequence = "TYKYFEVILVDPQHKAI [RPL15A]"
obs_value = 2.09

[[record]]
record_sequence = "NESSLALEFVSLLLSSV [SRB4]"
obs_value = 1.33

[[record]]
record_sequence = "RNFKKANLVNKESDLLE [BRN1]"
obs_value = 1.58


Name the reported protein stability index value associated with the sequence GLVNPKTVQSMTQRAIQ [SWI3] 2.25

What measured protein stability index goes with MVGLASGNDSMAGKVLI [BRR2] ? 3.4

I am curious: what protein stability index value has been reported for HPTTIESLREIPYGPDF [SEC65] ? 3.17

Could you tell me which protein stability index is on file for AVKDQQKYTKEMIDSHI [SNF2] ? 2.68

Please give the measured protein stability index for this sequence: VLCLTRSSYMLELVNTP [YCG1] 2.03

For the sequence QMSDKHATVVPPEEFSN [SRB7] , what protein stability index is on record? 2.88

Find the recorded protein stability index belonging to RNPDIYTREFVEAIRRS [NUT2] and report it. 2.15

# lookup: protein stability index of TRGPFHFRAPSRILYKA [RPL16B] 2.43

Would you kindly share the measured protein stability index for NSTDGAKITEIGSTSKR [YIL149C/MLP2] ? 2.91

Form field: reported protein stability index of SYANLPGTITHGMFSSA [FAS1] 2.15

These measurements were taken from the supplement of paper PMC9732359.
